These measurements were taken from patent US8710045B2.

- target.desc: hERG (Homo sapiens)
- Sequence (Q12809 whole entry): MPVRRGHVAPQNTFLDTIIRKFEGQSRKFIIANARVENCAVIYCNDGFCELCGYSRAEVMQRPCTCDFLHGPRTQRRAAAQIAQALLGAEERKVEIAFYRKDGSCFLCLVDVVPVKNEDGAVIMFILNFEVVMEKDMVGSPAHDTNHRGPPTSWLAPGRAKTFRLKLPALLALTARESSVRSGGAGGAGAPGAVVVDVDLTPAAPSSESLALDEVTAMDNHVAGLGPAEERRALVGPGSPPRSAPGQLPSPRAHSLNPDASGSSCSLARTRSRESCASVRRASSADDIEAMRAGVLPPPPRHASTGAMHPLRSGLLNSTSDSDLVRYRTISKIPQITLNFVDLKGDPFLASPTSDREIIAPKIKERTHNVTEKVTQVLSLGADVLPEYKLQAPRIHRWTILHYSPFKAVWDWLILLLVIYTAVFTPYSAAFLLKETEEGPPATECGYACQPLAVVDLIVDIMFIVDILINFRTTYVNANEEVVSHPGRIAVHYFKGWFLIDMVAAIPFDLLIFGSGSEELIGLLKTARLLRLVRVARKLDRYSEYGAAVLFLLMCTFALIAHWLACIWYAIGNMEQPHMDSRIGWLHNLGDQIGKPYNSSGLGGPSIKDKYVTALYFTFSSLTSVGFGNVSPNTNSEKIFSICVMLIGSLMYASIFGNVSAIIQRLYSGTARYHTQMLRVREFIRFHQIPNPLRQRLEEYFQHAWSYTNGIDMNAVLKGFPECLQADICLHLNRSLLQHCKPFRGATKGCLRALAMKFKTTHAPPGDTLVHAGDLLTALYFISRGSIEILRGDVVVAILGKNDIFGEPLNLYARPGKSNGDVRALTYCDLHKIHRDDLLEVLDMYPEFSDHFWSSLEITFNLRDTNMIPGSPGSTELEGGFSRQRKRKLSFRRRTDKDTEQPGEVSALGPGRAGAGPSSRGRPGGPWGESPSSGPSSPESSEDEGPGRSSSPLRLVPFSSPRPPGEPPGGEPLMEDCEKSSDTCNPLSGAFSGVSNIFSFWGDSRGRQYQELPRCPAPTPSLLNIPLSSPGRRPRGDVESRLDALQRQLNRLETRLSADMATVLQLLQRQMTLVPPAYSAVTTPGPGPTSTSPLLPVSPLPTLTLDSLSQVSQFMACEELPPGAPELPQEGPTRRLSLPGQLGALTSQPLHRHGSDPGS
- assay.method.text: hERG current, PatchXpress 7000A automatic parallel patch clamp in hERG-transfected HEK 293 cells (Example 6)
- protocol.conditions: human, HEK 293 cells stably transfected with hERG cDNA, Mean % hERG Inhibition, 0.01 μM
compounds and their reported inhibition at 5 min, 0.01 µM
metric: inhibition at 5 min, 0.01 µM (%)

compound: O=C(N1CCN(Cc2ccc3c(c2)OCO3)CC1)N1CCSc2ccccc2C1 [S101]
metric: inhibition at 5 min, 0.01 µM
quantitative.result: 3.4

compound: COc1ccc2c(c1)CNCCS2 [S26]
metric: inhibition at 5 min, 0.01 µM
quantitative.result: 8.9

compound: O=C(N1CCNCC1)N1CCSc2ccccc2C1 [S103]
metric: inhibition at 5 min, 0.01 µM
quantitative.result: 6.8

compound: CCN(CC)C(=O)N1CCSc2ccc(OC)cc2C1 [S48]
metric: inhibition at 5 min, 0.01 µM
quantitative.result: 1.3

compound: COC(=O)C(=O)N1CCSc2ccccc2C1 [S76]
metric: inhibition at 5 min, 0.01 µM
quantitative.result: 0.4

compound: COc1ccc2c(c1)CN(C(=O)N1CCNCC1)CCS2 [S64]
metric: inhibition at 5 min, 0.01 µM
quantitative.result: 0.2

compound: CCN(CC)C(=O)N1CCSc2ccccc2C1 [S75]
metric: inhibition at 5 min, 0.01 µM
quantitative.result: 1.4
